System: U251 CNS
Assay: NCI-60 one-dose screen, 48 h
Settings: 10 µM unless noted
This is part of a sample that, as a whole, favours compounds with a hit. Of some 83,000 tested, about 20% had one in any assay. The source made the active and inactive calls. Rule for the calls: active = growth percent below 10; inactive = the rest.
Classes used: active, inactive

1) CC1(C(=O)O)CCC(N)(C(=O)O)C1(C)C (centres undefined): inactive
2) CNc1cc(C(=O)O)nc(NC)n1: inactive
3) C=C(C)[C@@H]1CC[C@]2(C)[C@H](CC[C@@H]3[C@@H]([C@@](C)(O)CCC=C(C)C)CC[C@]32C)[C@@]1(C)CCC(=O)N1CCN(C)CC1: active
4) COc1ccc(/C=C(/C(=O)c2ccc(Cl)cc2)C(=O)C(F)(F)F)cc1: inactive
5) COc1ccc2nc3c(cc2c1)C(=O)CC(C(F)(F)F)C3 (centres undefined): inactive
6) COc1ncnc2c(-c3ccccc3)cn(COCc3ccccc3)c12: inactive
7) COc1ccc(C(=O)CSc2nnc(-c3cc(-c4ccccc4)nc4ccccc34)o2)cc1: inactive
8) NC1=NC(=O)NC1(c1ccccc1)c1ccccc1: inactive
9) Cn1cc(-c2nnc(-c3ccccc3)s2)c2cc(Br)cnc21: inactive

====

System: SW-620 colon
Assay: NCI-60 one-dose screen, 48 h
Settings: 10 µM unless noted
This is part of a sample that, as a whole, favours compounds with a hit. Of some 83,000 tested, about 20% had one in any assay. Calls of active or inactive are those of the source. Rule for the calls: active = growth percent below 10; inactive = the rest.
Classes used: active, inactive

1. COc1ccc(-c2c(C)nn3c(NCCN4CCOCC4)cc(C)nc23)cc1OC: inactive
2. O=C(Nc1cccc2ccccc12)c1cc2ccccc2cc1O: inactive
3. CC1(C)NCCC[C@]2(C)[C@H]3C=CC4=C5C[C@](C)(CO)CC[C@]5(C)CC[C@@]4(C)[C@]3(C)CC[C@@H]12: active

====

Tested on: BT-549 breast
Assay: NCI-60 one-dose screen, 48 h
Details: 10 µM unless noted
This is part of a sample that, as a whole, favours compounds with a hit. Of some 83,000 tested, about 20% had one in any assay. Active and inactive are the calls of the source. Rule for the calls: active = growth percent below 10; inactive = the rest.
Classes used: active, inactive

1) COc1ccc(/C=C2\N=C(Nc3ccccc3)N(NC(=O)c3ccccn3)C2=O)cc1: inactive
2) CC(C)=CC/C=C(/C)[C@H]1CC[C@]2(C)[C@@H]1CC[C@@H]1[C@@]3(C)CC/C(=N/O)C(C)(C)[C@@H]3CC[C@]12C: inactive
3) Ic1ccc2[nH]cc(SSc3c[nH]c4ccc(I)cc34)c2c1: inactive
4) CCCCCCCCCN(CCCCCCCCC)C(C)C(=O)c1ccc2cc(Br)c3ccccc3c2c1 (configuration not stated): inactive
5) CCOC(=O)c1nn(C2CCCCO2)c2ccc(NS(=O)(=O)c3ccc(C)cc3)cc12 (configuration not stated): inactive
6) CCOC(=O)c1cc(C#N)n2ncc3ccccc3c12: inactive
7) O=C(NNc1ccc(-c2ccccc2)nn1)c1ccccc1: inactive
8) CC1(C)C(=NO)C(C)(C)C1=NO: inactive
9) COc1cc(Cl)cc(-c2nn(C(=O)NS(=O)(=O)c3ccccc3)cc2-c2ccncc2)c1: inactive
10) O=C1CC(C(F)(F)F)Cc2nc3ccc(Br)cc3cc21 (configuration not stated): inactive
11) CC(=O)OC[C@]12CC[C@@H](C(=O)CBr)[C@@H]1[C@H]1CC[C@@H]3[C@@]4(C)CCCNC(C)(C)[C@@H]4CC[C@@]3(C)[C@]1(C)CC2: active
12) CC(C)C1=NOC(=O)C1=Cc1cn(-c2ccccc2)nc1-c1ccccc1: inactive
13) COc1cc2c(cc1OCCCN1CCN(CCCOc3cc4c(cc3OC)C(=O)N3C[C@H](F)C[C@H]3C=N4)CC1)N=C[C@@H]1C[C@@H](F)CN1C2=O: active
14) Cc1ccc(-c2cc(-c3ccc(C)cc3)nc(NCCNc3ccnc4cc(Cl)ccc34)n2)cc1: inactive
15) NC(=O)c1cccc(-c2ccc(S(=O)(=O)Nc3ccc4c(c3)N(C(=O)C3CC3)CCC4)cc2)c1: inactive
16) C=CCc1nc2ccccc2s1: inactive
17) C[n+]1c(-c2ccccc2)c2cc(N)ccc2c2ccccc21: active
18) O=C(Nc1ccc(F)cc1)c1ccccc1: inactive
19) O=C1Cc2c(sc3c(F)cccc23)C(c2ccccc2[N+](=O)[O-])N1 (configuration not stated): inactive
20) C#CC(OC(=O)N(C)C)(c1ccccc1)c1ccc(F)cc1 (configuration not stated): inactive
21) Cc1ccc(-c2cc(-c3ccc(C)cc3)nc(N3CCN(CCNc4ccnc5cc(Cl)ccc45)CC3)n2)cc1: inactive
22) C=C(C)[C@@H]1CC[C@]2(C(=O)OC)CC[C@]3(C)[C@H](CC[C@@H]4[C@@](C)(CCc5nn[nH]n5)[C@H](C(=C)C)CC[C@]43C)[C@@H]12: active
23) CC(C)[C@H]1CCC2=C3CC[C@]45OC(=O)[C@@]6(CCC(C)(C)C[C@H]64)CC[C@@]5(C)[C@]3(C)CC[C@@]21C: inactive
24) COc1ccc2nc3c(cc2c1)C(=O)CC(c1ccccc1)C3 (configuration not stated): inactive
25) COc1cc(OC)c(/C=C/C(=O)c2c(N)cc(OC)cc2OC)c(OC)c1: inactive
26) CNc1cc(C(=O)O)nc(NC)n1: inactive
27) Nc1ccc(NC(=O)c2ccccc2)c2c1C(=O)c1ccccc1C2=O: inactive

====

System: SNB-75 CNS
Assay: NCI-60 one-dose screen, 48 h (100 = growth as untreated, 0 = no growth, -100 = all killed)
Conditions: 10 µM unless noted
About 83,000 compounds went through this panel and 20% of them were active in at least one assay; those are over-represented in the sample as a whole.
Below is a list of entries, each paired with its recorded growth value.
RECORDED METRIC: growth (%)

1. CCOC(=O)CCC[P+](c1ccccc1)(c1ccccc1)c1ccccc1: 86.8
2. C[C@]12CCc3nc(Nc4ccccc4)sc3C1=CC[C@@H]1[C@@H]2CC[C@]2(C)/C(=N/NC(N)=S)CC[C@@H]12: 35.3
3. CN(C)C(=S)Sc1ccc([N+](=O)[O-])cc1[N+](=O)[O-]: 57.4
4. COc1ccc(-c2cc(-c3ccc(Cl)cc3)nc(NCCCCNc3ccnc4cc(Cl)ccc34)n2)cc1: 99.5
5. CCOC(=O)c1c[nH]n2c(=S)ncnc12: 90.7
6. CO[C@H]1CC[C@@]2(C)C(=CC[C@H]3[C@@H]4C[C@H](O)C[C@@]4(C)CC[C@@H]32)C1: 32.8
7. CC(=O)Nc1ccc2nc3ccc(NC(C)=O)cc3[n+](-c3ccccc3)c2c1: 82.2
8. CCOC(=O)c1sc2nc(-c3cc(OC)c(OC)c(OC)c3)nc(N3CCOCC3)c2c1C: 56.2
9. O=c1[nH]c2cc(Cl)c(Cl)cc2n2cc3ncccc3c12: 67.2
10. COc1ccc(C2CC(c3cc(OC)c(OC)c(OC)c3)=NN2C(C)=O)cc1OCC(=O)Nc1nc2ccc(C(F)(F)F)cc2s1 (stereo not drawn): 37
11. CC1Cc2ccc(OCCN(C)C)cc2C1=O (stereo not drawn): 98
12. COc1ccc2c(c1)C(C)Cc1c(Cl)ncnc1N2C (stereo not drawn): 2.7
13. COc1cc(-c2nc(SCCC(C)C)nc(Nc3ccc(S(N)(=O)=O)cc3)c2C#N)cc(OC)c1OC: 47.6

====

System: HS 578T breast
Assay: NCI-60 one-dose screen, 48 h (100 = growth as untreated, 0 = no growth, -100 = all killed)
Conditions: 10 µM unless noted
Method: Growth inhibition of the HS 578T human tumor cell line is measured as a screen for anti-cancer activity. Cells are grown in 96 well plates and exposed to the test compound for 48 hours. Compounds are tested at a single concentration, which is 10^-5 M for most compounds. The reported endpoint is percent growth (GI% or GIPRCNT), where numbers from 0 - 100% represent growth inhibition, and numbers from -100% - 0 represent cell death. For example, a value of 40 represents 60% growth inhibition. […]
About 83,000 compounds went through this panel and 20% of them were active in at least one assay; those are over-represented in the sample as a whole. The source made the active and inactive calls. How the source made its calls: active means growth percent below 10; inactive means the rest.
RECORDED METRIC: growth

1) Nc1cc(C(=O)O)[nH]c(=S)n1: 98.1% (inactive)
2) COc1ccc2c(c1)c(-c1noc(C(=O)c3cn(C)c4ncc(Br)cc34)n1)cn2C: 27.8% (inactive)
3) O=C(OCc1ccc2c(Cl)cc(Cl)c(O)c2n1)N1CCN(C(=O)c2cc3cc(F)ccc3[nH]2)CC1: 12.5% (inactive)
4) CCN=Cc1c(O)c(O)c(C(C)C)c2cc(C)c(-c3c(C)cc4c(C(C)C)c(O)c(O)c(C=NCC)c4c3O)c(O)c12: 57.8% (inactive)
5) c1ccc(-c2nc(N3CCCNCC3)c3nc(-c4ccccc4)oc3n2)cc1: 83.6% (inactive)
6) CC1(C)CC[C@]2(C(=O)O)CC[C@]3(C)C(=CC[C@@H]4[C@@]5(C)C/C(=C/c6ccco6)C(=O)C(C)(C)[C@@H]5CC[C@]43C)[C@@H]2C1: -5.24% [100 µM] (active)
7) C=C(C)[C@@H]1CC[C@]2(COCCCN)CC[C@]3(C)[C@H](CC[C@@H]4[C@@](C)(CCCNCCCN)[C@H](C(=C)C)CC[C@]43C)[C@@H]12: -39.2% [100 µM] (active)
8) O=C(Nc1cccc(C2=NCCN2)c1)c1cccc(C(=O)Nc2cccc(C3=NCCN3)c2)c1: 98.4% (inactive)
9) CCN(CC)c1cc(N)c(Cc2c(N)cc(N(CC)CC)cc2Cl)c(Cl)c1: 56% (inactive)
10) O=[N+]([O-])c1cccc(N=NNc2cccc([N+](=O)[O-])c2)c1: 101% (inactive)
11) Clc1ccccc1/C=N\Nc1ccccn1: 99.4% (inactive)
12) CCN(CC)c1ccc(/C=C/c2ccc3cc(C)ccc3[n+]2CC)cc1: 46.5% (inactive)
13) C[C@@H](NC(=O)[C@@H](CC(=O)N1CCC(N2CCCCC2)CC1)N1C(=O)[C@@H](N2C(=O)OC[C@@H]2c2ccccc2)[C@H]1/C=C/c1cccc(Cl)c1)c1ccccc1: 63.2% (inactive)
